- tgt: TEAD2 (Homo sapiens (Human), UniProt Q15562)
- Sequence (Q15562 whole entry): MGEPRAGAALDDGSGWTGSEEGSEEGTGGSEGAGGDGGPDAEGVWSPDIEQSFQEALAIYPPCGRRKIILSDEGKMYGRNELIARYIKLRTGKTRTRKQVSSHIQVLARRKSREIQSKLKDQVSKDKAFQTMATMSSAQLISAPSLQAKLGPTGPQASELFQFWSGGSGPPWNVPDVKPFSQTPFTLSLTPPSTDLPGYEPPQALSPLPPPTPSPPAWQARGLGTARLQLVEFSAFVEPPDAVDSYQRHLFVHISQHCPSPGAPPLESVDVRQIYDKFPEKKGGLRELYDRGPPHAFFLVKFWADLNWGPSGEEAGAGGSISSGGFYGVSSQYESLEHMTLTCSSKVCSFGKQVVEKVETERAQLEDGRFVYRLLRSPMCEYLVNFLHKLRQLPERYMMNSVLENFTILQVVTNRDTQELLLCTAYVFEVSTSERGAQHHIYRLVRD
- protocol: In vitro palmitoylation (TEAD2 autopalmitoylation, streptavidin blot)
- Type: biochemical
- measurement-setup: compound at 10 μM
measured-parameter: inhibition at 10 µM (%)

C=CC(=O)c1ccccc1Nc1ccc(Nc2ccc(C34CC5CC(CC(C5)C3)C4)cc2)cc1 5

a = N#Cc1cc(Nc2ccc(C34CC5CC(CC(C5)C3)C4)cc2)ccc1Nc1ccccc1C(=O)O
b = O=C(CN1CCC[C@H]1C(=O)O)Nc1ccc(C23CC4CC(CC(C4)C2)C3)cc1
c = O=C(Nc1ccc(C23CC4CC(CC(C4)C2)C3)cc1)c1cccnc1Nc1cccc(C(F)(F)F)c1
d = Clc1cc(C23CC4CC(CC(C4)C2)C3)ccc1Nc1ccc(Nc2ccccc2-c2nnn[nH]2)cc1
// query Order the records by inhibition at 10 µM, with each subsequent value no larger than the one before. # answer = labels listed in requested order
// result a, c, d, b
(a: 80%, c: 50%, d: 20%, b: 8%)

Taken from patent US12187722B2.
